Molecular target: SF9 affinity purified rat FPT (Rattus norvegicus, UniProt Q02293+Q04631)
Experiment: PFT (FPT) inhibitory activity assay, radiolabeled farnesyl pyrophosphate and biotinyl peptide, streptavidin beads
Settings: HEPES buffer pH 7.4, 30° C., 30 minutes; read-out: FTase IC50
observable: IC50 (nM)

Answered examples (10):
C[C@H](O)CNC(=O)c1cccc(SCc2c(O[C@H](Cn3ccnc3)c3ccccc3)ccc3c2CCCC3=O)c1 = 0.2
O=C1CCCc2c1ccc(O[C@H](Cn1ccnc1)c1ccccc1)c2C[S+]([O-])c1ccccc1 (stereo partly shown) = 3
COC(=O)c1ccccc1S(=O)(=O)NCc1c(O[C@H](Cn2ccnc2)c2ccccc2)ccc2c1CCCC2=O [Compound 42c] = 3.5
C[C@H](O)CNC(=O)c1ccc(SCc2c(O[C@H](Cn3ccnc3)c3ccccc3)ccc3c2CCCC3=O)cc1 = 0.2
O=C1CCCc2c1ccc(O[C@H](Cn1ccnc1)c1ccccc1)c2CNc1ccc2c(c1)OCCO2 = 5
CC(C)SCc1c(O[C@H](Cn2ccnc2)c2ccccc2)ccc2c1CCCC2=O = 0.4
O=C1CCCc2c1ccc(O[C@H](Cn1ccnc1)c1ccccc1)c2CNc1cccc2cccnc12 = 5.3
COCc1c(O[C@H](Cn2ccnc2)c2ccccc2)ccc2c1CCCC2=O = 11
O=C1CCCc2c1ccc(O[C@H](Cn1ccnc1)c1ccccc1)c2CNS(=O)(=O)Cc1ccccc1 [Compound 42g] = 1.5
O=C1CCCc2c1ccc(O[C@H](Cn1ccnc1)c1ccccc1)c2CNc1ccc(Br)cc1 = 16

A. O=C1CCCc2c1ccc(O[C@H](Cn1ccnc1)c1ccccc1)c2COc1ccc2ncccc2c1 [Compound 108]
B. COc1ccc(S(=O)(=O)NCc2c(O[C@H](Cn3ccnc3)c3ccccc3)ccc3c2CCCC3=O)cc1 [Compound 42a]
Hello, I am sorting some records. Could you say if A or B has the smaller IC50 value? Answer with the label corresponding to your selection. B
(B: 1.1 nM, A: 3 nM)

---

Target: SF9 affinity purified rat FPT (Rattus norvegicus, UniProt Q02293+Q04631)
Test: PFT (FPT) inhibitory activity assay, radiolabeled farnesyl pyrophosphate and biotinyl peptide, streptavidin beads
Conditions: HEPES buffer pH 7.4, 30° C., 30 minutes; read-out: FTase IC50
observable: IC50 (nM)

Use these answered entries as a reference point.
C[C@H](O)CNC(=O)c1cccc(S(=O)(=O)Cc2c(O[C@H](Cn3ccnc3)c3ccccc3)ccc3c2CCCC3=O)c1 [Compound 200] = 0.24
O=C1CCCc2c1ccc(O[C@H](Cn1ccnc1CO)c1ccccc1)c2CS(=O)(=O)c1ccccc1 [Compound 10d] = 5.5

I. CN(C)CCNC(=O)c1ccc(S(=O)(=O)Cc2c(O[C@H](Cn3ccnc3)c3ccccc3)ccc3c2CCCC3=O)cc1 [Compound 181]
II. CCC(Cn1ccnc1)Oc1ccc2c(c1CS(=O)(=O)c1ccccc1)CCCC2=O (stereo not drawn) [Compound 63n]
III. O=C(O)CCNC(=O)c1ccc(S(=O)(=O)Cc2c(O[C@H](Cn3ccnc3)c3ccccc3)ccc3c2CCCC3=O)cc1 [Compound 166]
IV. O=C1CCCc2c1ccc(O[C@H](Cn1ccnc1)c1cccnc1)c2NC(=O)c1nccc2ccccc12 [Compound 63d]
V. C=CCc1c(OC(Cn2ccnc2)c2ccccc2Cl)ccc2c1CCCC2=O (racemic) [Compound 59]
Hi! Can you put these in order of IC50, lowest number first? Write out the labels following the order that was asked for. IV, II, V, I, III

a. O=C1CCCc2c1ccc(O[C@H](Cn1ccnc1)c1ccccc1)c2CSCc1ccc(Cl)c(Cl)c1 [Compound 153]
b. O=C(NCCO)c1ccccc1S(=O)(=O)Cc1c(O[C@H](Cn2ccnc2)c2ccccc2)ccc2c1CCCC2=O [Compound 165]
c. COCCNC(=O)c1ccc(SCc2c(O[C@H](Cn3ccnc3)c3ccccc3)ccc3c2CCCC3=O)cc1 [Compound 261]
Rank descending by IC50. Labels, requested order. a, b, c
(a: 15 nM, b: 6.4 nM, c: 0.2 nM)

P. CC(C)[C@@H](Cn1ccnc1)Oc1ccc2c(c1CS(=O)(=O)C(C)C)CCCC2=O [Compound 63g]
Q. O=C1CCC(c2ccccc2)c2cc(OC(Cn3ccnc3)c3ccccc3)ccc21 (racemic) [Compound 48]
Between P and Q , whose recorded IC50 is greater? Your answer should be the label attached to the chosen record. Q
